- System: Rattus norvegicus
- Test: Anti-inflammatory activity in Rattus norvegicus albino (rat) assessed as inhibition of carrageenan-induced paw edema at 10 mg/kg, ip administered 1 hr prior tocarrageenan-challenge measured after 3 hr relative to indomethacin
- Assay type: functional
- Test conditions: route intraperitoneal
Below, each entry is listed with its recorded inhibition in vivo at 10 mg/kg.

Compound: CCC(=O)N1N=C(c2ccc(N3CCOCC3)cc2)CC1c1ccccc1OC (stereo not given)
inhibition in vivo at 10 mg/kg: 10.4%
//
Compound: CCC(=O)N1N=C(c2ccc(N3CCOCC3)cc2)CC1c1ccc(OC)c(OC)c1 (stereo not given)
inhibition in vivo at 10 mg/kg: 52.8%
//
Compound: COc1cc(OC)cc(C2CC(c3ccc(N4CCOCC4)cc3)=NN2C(C)=O)c1 (stereo not given)
inhibition in vivo at 10 mg/kg: 22.7%
//
Compound: CC(=O)N1N=C(c2ccc(N3CCOCC3)cc2)CC1c1ccc(Br)cc1 (stereo not given)
inhibition in vivo at 10 mg/kg: 19%
//
Compound: CCC(=O)N1N=C(c2ccc(N3CCOCC3)cc2)CC1c1cc(OC)c(OC)c(OC)c1 (stereo not given)
inhibition in vivo at 10 mg/kg: 1.84%

====

- Tested on: Rattus norvegicus
- Test: Anti-inflammatory activity in Rattus norvegicus albino (rat) assessed as inhibition of carrageenan-induced paw edema at 10 mg/kg, ip administered 1 hr prior tocarrageenan-challenge measured after 3 hr relative to indomethacin
- Assay type: functional
- Test conditions: route intraperitoneal
Decision: inhibition in vivo at 10 mg/kg >= 10% yields met, all other cases yield not met.

Compound: CCC(=O)N1N=C(c2ccc(N3CCOCC3)cc2)CC1c1cccs1 (configuration not stated)
Classification: not met
//
Compound: COc1cc(C2CC(c3ccc(N4CCOCC4)cc3)=NN2C(C)=O)cc(OC)c1OC (configuration not stated)
Classification: not met
//
Compound: CCC(=O)N1N=C(c2ccc(N3CCOCC3)cc2)CC1c1ccc(Br)cc1 (configuration not stated)
Classification: met
//
Compound: COc1ccccc1C1CC(c2ccc(N3CCOCC3)cc2)=NN1C(C)=O (configuration not stated)
Classification: met
//
Compound: CC(=O)N1N=C(c2ccc(N3CCOCC3)cc2)CC1c1cccs1 (configuration not stated)
Classification: met
//
Compound: CCC(=O)N1N=C(c2ccc(N3CCOCC3)cc2)CC1c1cc(OC)cc(OC)c1 (configuration not stated)
Classification: met
